Where do these numbers come from? They come from the RNAGym collection of RNA variant scans (doi:10.1093/molbev/msab373).

B1: Azoarcus group I ribozyme (parent)
chain: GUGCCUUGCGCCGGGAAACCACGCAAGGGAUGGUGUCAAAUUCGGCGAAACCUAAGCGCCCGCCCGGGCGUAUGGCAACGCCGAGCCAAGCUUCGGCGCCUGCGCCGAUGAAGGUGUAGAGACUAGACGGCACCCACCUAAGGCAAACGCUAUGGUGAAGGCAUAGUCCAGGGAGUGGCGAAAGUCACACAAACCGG

# Variants of: B1
# assay.explanation: reverse-splicing fitness (ratio to wild type); higher = more active; in vitro selection; Mg2+ level not given
// label 0 strictly below 0.01 in reverse-splicing fitness; label 1 otherwise

variant_spec="A111C A145C U176A" qualitative_label="label 1"
variant_spec="A111G A120G A145C C169G U176A" qualitative_label="label 1"
variant_spec="A111U A120C A145G C150G C169U" qualitative_label="label 1"

Reported reverse-splicing fitness reaches at least 0.01 for C82U A111G A120C A145C C150U U176A ?
label 1

Follow-up entry: C82A A120C A145U C150A
label 1

Please answer likewise for A120U C150U C169G U176A
label 1

Check C82G A120G C150U C169U U176A too.
label 1

Record: C82U A111G A120U A145C C150A U176A
label 0

Try this variant next: C82G A120U C169A U176C
label 0

For A111U A120G A145C C150U C169G then?
label 1
